Provenance of the data: patent US8778974B2

In this section we review reported melting point values for a set of compounds.
Reply numerically in °C, unit not repeated.

Solved cases below.
Cc1cc(-n2nc(Nc3cc(F)c(F)c(F)c3)nc2C[C@H](C)O)ccn1 [E207] ... 200.2
CCc1cc(-n2nc(Nc3ccc(F)c(F)c3)nc2C[C@H](C)O)ccn1 [E131] ... 168
CN(C)C(=O)CCc1nc(Nc2ccc(F)c(F)c2)nn1-c1ccccc1Cl [E57] ... 179.6
Cc1cc(-n2nc(Nc3cc(F)cc(Cl)c3)nc2CC(=O)NC2CC2)cc(C)n1 [E247] ... 289.3
COCCCc1nc(Nc2ccc(F)c(C(F)(F)F)c2)nn1-c1ccnc(C)c1 [E15] ... 141.4
COCCc1nc(Nc2ccc(F)c(C(F)(F)F)c2)nn1-c1ccnc(C)c1 [E13] ... 170.4

Consider the compound COc1ccc(Nc2nc(CC(=O)NC3CC3)n(-c3cc(C)nc(C)c3)n2)cc1C(F)(F)F [E229] and give its recorded melting point.
265.7

Consider the compound CC[C@H](O)Cc1nc(Nc2ccc(F)c(F)c2)nn1-c1ccnc(C)c1 [E30] and give its recorded melting point.
171.1
